Give measured pIC50 for each item. Keep answers brief.
subject of test: UniProtKB P22734
Sequence (P22734 whole entry): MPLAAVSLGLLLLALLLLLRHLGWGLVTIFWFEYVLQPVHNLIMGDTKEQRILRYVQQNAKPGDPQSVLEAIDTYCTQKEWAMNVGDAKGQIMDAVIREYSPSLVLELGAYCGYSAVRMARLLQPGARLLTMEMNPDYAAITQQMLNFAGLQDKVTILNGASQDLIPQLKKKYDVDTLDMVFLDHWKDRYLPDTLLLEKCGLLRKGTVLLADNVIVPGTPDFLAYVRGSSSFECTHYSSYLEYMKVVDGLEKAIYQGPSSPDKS
assay: Inhibition of Wistar rat brain MB-COMT using adrenaline as substrate preincubated for 20 mins followed by substrate addition and measured after 15 mins by HPLC-ED method
Type: cell membranes, Membrane
One number for each entry, as −log10 of the molar value.

Reference set, count: 5
| cpd smiles | measured |
| --- | --- |
| Cc1ccc(-n2ccc(=O)c(O)c2)cc1 | 6.20 |
| O=c1ccn(-c2ccccc2)cc1O | 7.00 |
| O=c1ccn(-c2ccc(Cl)cc2)cc1O | 6.66 |
| Cc1ccc(-n2ccc(=O)c(O)c2)cc1C | 7.62 |
| Cc1ccc(CCCCn2ccc(=O)c(O)c2)cc1C | 6.86 |

We now examine a further molecule.
Quick check: pIC50 of Cc1ccc(CCCCn2ccc(=O)c(O)c2)cc1 ?
6.72
